- Assay: In vitro permeation study, HCE cell membranes
- Applied conditions: human, pH 7
Metric: Papp A→B at 180 min, 500 μM (×10⁻⁶ cm/s)
Provide the reading as a plain figure in ×10⁻⁶ cm/s.

Papp A→B at 180 min, 500 μM lookup needed for C=C1CC[C@@]2(O)[C@H]3Cc4ccc(O)c5c4[C@@]2(CCN3CC2CC2)[C@H]1O5 , thanks.
12.1

* * *

- Assay: In vitro permeation study, MDCK cell membranes
- Format: in vitro ADME, canine
- Applied conditions: dog, pH 8.0, n = 4, read-out: Permeability factor (Papp ± SD)
Metric: Papp A→B at 180 min, 500 μM (×10⁻⁶ cm/s)
Express the result in ×10⁻⁶ cm/s but write the number alone.

Give the measured Papp A→B at 180 min, 500 μM of C=C1CC[C@@]2(O)[C@H]3Cc4ccc(O)c5c4[C@@]2(CCN3CC2CC2)[C@H]1O5 .
23.9

Value source: patent US20030153590A1
